Tested on: Mycobacterium tuberculosis
protocol-details: Antimycobacterial activity against Mycobacterium tuberculosis H37Rv assessed as inhibition of bacterial growth at 50 ug/ml preincubated for 72 hrs followed by phAE202 and Cacl2 addition and measured after 4 hrs by luciferase reporter mycobacterio-phage assay
Type: functional
condition-notes: time 76 hrs
measured-attribute: inhibition at 50 µg/mL (%)
Report the figure in % without appending any unit label.

O=C(/C=C/c1c[nH]c2ccccc12)c1cccnc1; 63.1

Fill in: inhibition at 50 µg/mL of O=C(/C=C/c1c[nH]c2ccccc12)c1ccc(-c2ccc[nH]2)cc1 is ___
26.4

Please answer likewise for O=C(/C=C/c1c[nH]c2ccccc12)c1ccc2c(c1)OCO2
66.8

Then this molecule: O=C1CCCC/C1=C\c1cc2ccccc2[nH]1
53.1

* * *

Tested on: Mycobacterium tuberculosis
protocol-details: Antimycobacterial activity against Mycobacterium tuberculosis H37Rv assessed as inhibition of bacterial growth at 50 ug/ml preincubated for 72 hrs followed by phAE202 and Cacl2 addition and measured after 4 hrs by luciferase reporter mycobacterio-phage assay
Format: functional
condition-notes: time 76 hrs
measured-attribute: inhibition at 50 µg/mL (%)
Give the value, in units of %, as a plain number.

O=C(/C=C/c1c[nH]c2ccccc12)c1ccc(F)cc1; 50.3

Find inhibition at 50 µg/mL (Mycobacterium tuberculosis) for the entry COc1cccc(C(=O)/C=C/c2c[nH]c3ccccc23)c1
27.1

Also O=C(/C=C/c1c[nH]c2ccccc12)c1ccc(O)cc1 , if possible.
54.9

Same again, this time with Cc1ccc(C(=O)/C=C/c2c[nH]c3ccccc23)cc1
41.7

Also check O=C(/C=C/c1c[nH]c2ccccc12)c1ccc(-c2ccsc2)cc1
62

And for O=C(/C=C/c1c[nH]c2ccccc12)c1ccc(Br)cc1 ?
64.9
